Hello, the source for this data is ChEMBL document CHEMBL4346712, in case you need it.

target: Bifunctional epoxide hydrolase 2 (Homo sapiens)
protocol.text: Competitive inhibition of soluble epoxide hydrolase (unknown origin) at 100 uM relative to control
quantity: inhibition

// known answers, use as guide
compound_structure=COc1cc(/C=C/C(=O)O[C@H]2[C@H](O)[C@@H](CO)O[C@]2(CO)O[C@H]2O[C@H](CO)[C@@H](OC(=O)c3ccccc3)[C@H](O)[C@H]2O)cc(OC)c1OC target="Bifunctional epoxide hydrolase 2 (Homo sapiens)" quantity=inhibition experimental_result="> 100%"
compound_structure=COc1cc(/C=C/C(=O)OC[C@H]2O[C@H](O[C@@]3(CO)O[C@H](CO)[C@@H](O)[C@@H]3OC(=O)/C=C/c3cc(OC)c(OC)c(OC)c3)[C@H](O)[C@@H](O)[C@@H]2O)cc(OC)c1O target="Bifunctional epoxide hydrolase 2 (Homo sapiens)" quantity=inhibition experimental_result=97.4%
compound_structure=COc1cc(/C=C/C(=O)O[C@H]2[C@H](O)[C@@H](CO)O[C@@]2(CO)O[C@H]2O[C@H](COC(=O)c3ccc(O)cc3)[C@@H](O)[C@H](O)[C@H]2O)cc(OC)c1OC target="Bifunctional epoxide hydrolase 2 (Homo sapiens)" quantity=inhibition experimental_result="> 100%"

Next compound, please.
Challenge: Checklist item: inhibition tested on Bifunctional epoxide hydrolase 2 (Homo sapiens), entry COc1ccc(C(=O)OC[C@H]2O[C@H](O[C@]3(CO)O[C@H](CO)[C@@H](O)[C@@H]3OC(=O)/C=C/c3cc(OC)c(OC)c(OC)c3)[C@H](O)[C@@H](O)[C@@H]2O)cc1 , value?
Response given: > 100%
